Origin of values: the supplement of paper PMC10567573

B1: TRAF3IP2 (parent)
chain: KQGSMNFRFIPVLFPNAKKEHVPT

Variants of: B1
Experiment: protein stability index of a GFP-peptide fusion (GPS, HEK-293T) (PSI 1-6); higher = more stable;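 note: lentivirally expressed fusions sorted by FACS into six bins by GFP to DsRed ratio, PSI derived from sequencing read proportions per bin multiplied by bin number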
Conditions: c terminus: a fixed tail appended
metric: protein stability index
Numbers only.

Some solved entries appear below for comparison.
H21K ... 1.77
P11D ... 2.37
F14D ... 2.77

Need protein stability index for each of these variants.
1. Q2C
2. F9D

1: 1.8; 2: 3.99
